# Tested on: 945468-187-T-J3-PDC spheroids with HUVEC/MSC, viability;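 further: spheroids exposed to agents for 7 days before viability read; 100% = DMSO vehicle control viability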
# experiment.summary: Anticancer human tumor 945468-187-T-J3-PDC patient-derived rectal carcinoma cell line growth inhibition [PI3K]
# run.conditions: second compound 3.16 µM; first compound 10 µM; stronger effect = lower value
# From the text: Combinatorial screen of targeted agents with the PI3K inhibitors inavolisib, alpelisib, duvelisib, and copanlisib in multi-cell type tumor spheroids A high-throughput screen of multi-cell type tumor spheroids was designed to identify active combinations of targeted small molecules and PI3K pathway inhibitors. […] Compounds. […] If the clinical Cmax for an agent had not been determined, the highest concentration tested was 10 microM. […]
quantity.kind: viability, T/C

So what's the measured viability, T/C for this one? CC(C)NCC(C(=O)N1CCN(c2ncnc3c2C(C)CC3O)CC1)c1ccc(Cl)cc1 (configuration not stated) + Cc1nc(NC(=O)N2CCCC2C(N)=O)sc1-c1ccnc(C(C)(C)C(F)(F)F)c1
27.1%

Consider next the compound CCCS(=O)(=O)Nc1ccc(F)c(C(=O)c2c[nH]c3ncc(-c4ccc(Cl)cc4)cc23)c1F + Cc1nc(NC(=O)N2CCCC2C(N)=O)sc1-c1ccnc(C(C)(C)C(F)(F)F)c1 in the same way.
31.2%

Also check Cn1nccc1Nc1nccc(-c2ccn(C(CO)c3ccc(Cl)c(F)c3)c(=O)c2)n1 (configuration not stated) + Cc1nc(NC(=O)N2CCCC2C(N)=O)sc1-c1ccnc(C(C)(C)C(F)(F)F)c1
90.1%

Another compound to look at: Cn1nccc1Nc1nccc(-c2ccn(C(CO)c3ccc(Cl)c(F)c3)c(=O)c2)n1 (configuration not stated) + CC(Nc1ncnc2nc[nH]c12)c1cc2cccc(Cl)c2c(=O)n1-c1ccccc1
122%

And what about the compound CNC(=O)c1ccc(N2C(=S)N(c3ccc(C#N)c(C(F)(F)F)c3)C(=O)C2(C)C)cc1F + Cc1nc(NC(=O)N2CCCC2C(N)=O)sc1-c1ccnc(C(C)(C)C(F)(F)F)c1 ?
121%

Record: CC1(C)CCC(Nc2ncc(C(F)(F)F)c(-c3c[nH]c4c(P(C)(C)=O)c(C#N)ccc34)n2)CN1 (configuration not stated) + Cc1nc(NC(=O)N2CCCC2C(N)=O)sc1-c1ccnc(C(C)(C)C(F)(F)F)c1
5.2%

And the next one, Cn1ncc(Cl)c1-c1cc(C(=O)NC(CN)Cc2cccc(F)c2)sc1Cl (configuration not stated) + Cc1nc(NC(=O)N2CCCC2C(N)=O)sc1-c1ccnc(C(C)(C)C(F)(F)F)c1 ?
16.4%

Moving on to the next compound: CC(Cn1ccc(-c2ccc(C#N)c(Cl)c2)n1)NC(=O)c1cc(C(C)O)[nH]n1 (configuration not stated) + CC(Nc1ncnc2nc[nH]c12)c1cc2cccc(Cl)c2c(=O)n1-c1ccccc1
110%

Try this compound next: CC1(C)CCC(Nc2ncc(C(F)(F)F)c(-c3c[nH]c4c(P(C)(C)=O)c(C#N)ccc34)n2)CN1 (configuration not stated) + CC(Nc1ncnc2nc[nH]c12)c1cc2cccc(Cl)c2c(=O)n1-c1ccccc1
15.7%

Please give the result for C#Cc1c(F)ccc2cc(O)cc(-c3ncc4c(N5CC6CCC(C5)N6)nc(OCC56CCCN5CC(F)C6)nc4c3F)c12 (configuration not stated) + Cc1nc(NC(=O)N2CCCC2C(N)=O)sc1-c1ccnc(C(C)(C)C(F)(F)F)c1 too.
38%

Now this one: C[C@@H](NC(=O)c1ncnc(N)c1Cl)c1ncc(C(=O)Nc2cc(C(F)(F)F)c(Cl)cn2)s1 + CC(Nc1ncnc2nc[nH]c12)c1cc2cccc(Cl)c2c(=O)n1-c1ccccc1
96%

# repeat for Cn1ncc(Cl)c1-c1cc(C(=O)NC(CN)Cc2cccc(F)c2)sc1Cl (configuration not stated) + CC(Nc1ncnc2nc[nH]c12)c1cc2cccc(Cl)c2c(=O)n1-c1ccccc1
24.6%

Same question for C=CC(=O)N1CCN(c2nc(=O)n(-c3c(C)ccnc3C(C)C)c3nc(-c4c(O)cccc4F)c(F)cc23)C(C)C1 (configuration not stated) + Cc1nc(NC(=O)N2CCCC2C(N)=O)sc1-c1ccnc(C(C)(C)C(F)(F)F)c1 please.
115%

Now give it for C[C@@H](NC(=O)c1ncnc(N)c1Cl)c1ncc(C(=O)Nc2cc(C(F)(F)F)c(Cl)cn2)s1 + Cc1nc(NC(=O)N2CCCC2C(N)=O)sc1-c1ccnc(C(C)(C)C(F)(F)F)c1 too.
103%

Repeat for the following compound: CC1(C)CCC(CN2CCN(c3ccc(C(=O)NS(=O)(=O)c4ccc(NCC5CCOCC5)c([N+](=O)[O-])c4)c(Oc4cnc5[nH]ccc5c4)c3)CC2)=C(c2ccc(Cl)cc2)C1 + Cc1nc(NC(=O)N2CCCC2C(N)=O)sc1-c1ccnc(C(C)(C)C(F)(F)F)c1
14.5%

How about this compound: CNC(=O)c1ccc(N2C(=S)N(c3ccc(C#N)c(C(F)(F)F)c3)C(=O)C2(C)C)cc1F + CC(Nc1ncnc2nc[nH]c12)c1cc2cccc(Cl)c2c(=O)n1-c1ccccc1
110%

Quick one: CC(Cn1ccc(-c2ccc(C#N)c(Cl)c2)n1)NC(=O)c1cc(C(C)O)[nH]n1 (configuration not stated) + Cc1nc(NC(=O)N2CCCC2C(N)=O)sc1-c1ccnc(C(C)(C)C(F)(F)F)c1
104%

What about CCCS(=O)(=O)Nc1ccc(F)c(C(=O)c2c[nH]c3ncc(-c4ccc(Cl)cc4)cc23)c1F + CC(Nc1ncnc2nc[nH]c12)c1cc2cccc(Cl)c2c(=O)n1-c1ccccc1 ?
56.5%

// query: C#Cc1c(F)ccc2cc(O)cc(-c3ncc4c(N5CC6CCC(C5)N6)nc(OCC56CCCN5CC(F)C6)nc4c3F)c12 (configuration not stated) + CC(Nc1ncnc2nc[nH]c12)c1cc2cccc(Cl)c2c(=O)n1-c1ccccc1
101%

Input C=CC(=O)N1CCN(c2nc(=O)n(-c3c(C)ccnc3C(C)C)c3nc(-c4c(O)cccc4F)c(F)cc23)C(C)C1 (configuration not stated) + CC(Nc1ncnc2nc[nH]c12)c1cc2cccc(Cl)c2c(=O)n1-c1ccccc1
93.4%

CC1(C)CCC(CN2CCN(c3ccc(C(=O)NS(=O)(=O)c4ccc(NCC5CCOCC5)c([N+](=O)[O-])c4)c(Oc4cnc5[nH]ccc5c4)c3)CC2)=C(c2ccc(Cl)cc2)C1 + CC(Nc1ncnc2nc[nH]c12)c1cc2cccc(Cl)c2c(=O)n1-c1ccccc1 ?
98.2%

Another compound: CC(C)NCC(C(=O)N1CCN(c2ncnc3c2C(C)CC3O)CC1)c1ccc(Cl)cc1 (configuration not stated) + CC(Nc1ncnc2nc[nH]c12)c1cc2cccc(Cl)c2c(=O)n1-c1ccccc1
32.4%
